B1: LINE1-full (parent)
chain: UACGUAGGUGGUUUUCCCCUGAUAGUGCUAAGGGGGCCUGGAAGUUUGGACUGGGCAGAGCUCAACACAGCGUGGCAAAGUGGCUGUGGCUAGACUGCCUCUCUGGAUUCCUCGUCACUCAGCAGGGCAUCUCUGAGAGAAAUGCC

# Variants of: B1
# Procedure details: self-cleavage, relative activity (ratio to wild type); higher = more cleavage; in vitro, sequencing; the parent is a self-cleaving ribozyme
Parameter: self-cleavage. Scope: all listed entries.
// return just the number, without any unit appended

{"columns": ["Sequence", "self-cleavage"],
 "data": [
  ["UACGUAGGUGGUUUUCCCCUGAUAGUGCUAAGGGGGCCUGGCAGUUUGGACUGGGCAGAGCUCAACACAGCGUGGCAAAGUGGCUGUGGCUAGACUGCCUCUCUGGAUUCCUCGUCACUCAGCAGGGCAUCUCAGAGAGAAAUGCC", 0.83],
  ["UACGUAGGUGGUUUUCCCCUGAUAGUGCUAAGGGGGCCUGGAAGUUUGGACUGGGCAGAGCUCAACACAGCGUGGCAAAGUGGCUGUGGCUAGACAGCCUCUCUGGAUUCCUCGUUACUCAGCAGGGCAUCUCUGAGAGAAAUGCC", 0.11],
  ["UACGUAGGUGGUUUUCCCCUGAUAGUGCUAAGGGGGCCUGGAAGUUUGGACUGGGCAGAGCUCAACACAGCGUGGCAAAGUGGCUGUGGCUAGACUGCCUCUCUGGAAUCCUCGUCACUCAGCUGGGCAUCUCUGAGAGAAAUGCC", 1.35],
  ["UACGUAGGCGGUUUUCCCCUGAUAGUGCUAAGGGGGCCUGGAAGUUUGGACUAGGCAGAGCUCAACACAGCGUGGCAAAGUGGCUGUGGCUAGACUGCCUCUCUGGAUUCCUCGUCACUCAGCAGGGCAUCUCUGAGAGAAAUGCC", 1.2],
  ["UACGUAGGUGGUUUUCCCCUGAUAGUGCUAAGGGGGCCUGGGAGUUUGGACUGGGCAGAGCUCAACACAGCGUGGCAAAGUGGCUGUGGCUAGACUGCCUCUCUGGAUUCCUCGUCACCCAGCAGGGCAUCUCUGAGAGAAAUGCC", 1.35]
]}

get_value(item= "UACGUAGGUGGUUUUCCCCUGAUAGUGCUAAGGGGGCCUGGAAGUUCGGACUGGGCAGAGCUCAACACAGCGUGGCAAAGUGGCUGUGGCUAGACUGCCUCUCUGGAUUCCUCGUCACUCAGCCGGGCAUCUCUGAGAGAAAUGCC" , readout=self-cleavage) returns 1.31

Lab note: "UACGUAGGUGGUUUUCCCCUGAUAGUGCUAAGGGGGCCUGGAAGUUUGGACUGGGCCGAGCUCAACACAGCGUGGCAAAGUGGCUGCGGCUAGACUGCCUCUCUGGAUUCCUCGUCACUCAGCAGGGCAUCUCUGAGAGAAAUGCC" gave self-cleavage of 0
